Listed molecules paired with reported IC50
target: GST-CIB1 : F-scrambled peptide (Homo sapiens, UniProt Q99828); construct: made in house; host or cells: BL-21 plus RIL cells (E. coli); experiment: FP scrambled-peptide counter screen, 1536-well format; type: binding; conditions: Table S3, counterscreen; read-out: IC50 [μM] (counterscreen)
Sequence (Q99828 whole entry): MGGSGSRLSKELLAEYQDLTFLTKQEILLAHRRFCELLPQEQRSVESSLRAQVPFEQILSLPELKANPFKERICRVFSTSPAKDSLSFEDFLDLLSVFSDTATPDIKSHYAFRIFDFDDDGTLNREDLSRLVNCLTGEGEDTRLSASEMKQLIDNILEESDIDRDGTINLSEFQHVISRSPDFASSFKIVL
Assay metric: IC50 (µM)

>  <Molecule>
O=C(Nc1ccc(S(=O)(=O)N2CCOCC2)cc1)c1cc(Cl)ccc1NS(=O)(=O)c1ccc(Cl)s1.O=C(O)C(F)(F)F [NCGC00249417-01]

>  <Assay metric>
IC50

>  <Value units>
µM

>  <Test value>
79.4

$$$$
>  <Molecule>
Cc1ccc(OCCn2c(CCNC(=O)c3ccsc3)nc3ccccc32)cc1.O=C(O)C(F)(F)F [NCGC00238707-01]

>  <Assay metric>
IC50

>  <Value units>
µM

>  <Test value>
50.1

$$$$
>  <Molecule>
O=C(O)C(F)(F)F.O=C(O)c1ccc(Cc2c(-c3cccc(-c4ccccc4)c3)nn(-c3nc(C(=O)O)cs3)c2O)cc1 [NCGC00356639-01]

>  <Assay metric>
IC50

>  <Value units>
µM

>  <Test value>
39.8

$$$$
>  <Molecule>
Cc1ccc(S(=O)(=O)Nc2ccc(Br)cc2C(=O)Nc2nc(-c3ccccc3)cs2)cc1.O=C(O)C(F)(F)F [NCGC00262989-01]

>  <Assay metric>
IC50

>  <Value units>
µM

>  <Test value>
35.5

$$$$
>  <Molecule>
O=C(O)C(F)(F)F.Oc1cccc2cc(N3CCCC3)cnc12 [NCGC00188744-01]

>  <Assay metric>
IC50

>  <Value units>
µM

>  <Test value>
17.8

$$$$
>  <Molecule>
O=C(O)C(F)(F)F.O=S(=O)(Nc1ccc(N2CCNCC2)cc1)c1ccc(NCc2ccc(Br)cc2O)cc1 [NCGC00343874-01]

>  <Assay metric>
IC50

>  <Value units>
µM

>  <Test value>
44.7

$$$$
>  <Molecule>
NS(=O)(=O)c1ccc(Nc2nc(-c3ccccc3)cs2)cc1.O=C(O)C(F)(F)F [NCGC00262411-01]

>  <Assay metric>
IC50

>  <Value units>
µM

>  <Test value>
44.7

$$$$
>  <Molecule>
CN1CCCN(C(=O)c2cccc(-c3ccc(/C=C4/C(=O)Nc5ccc(Cl)cc54)o3)c2)CC1 [NCGC00346935-01]

>  <Assay metric>
IC50

>  <Value units>
µM

>  <Test value>
35.5

$$$$
>  <Molecule>
O=C(O)C(F)(F)F.O=C(O)c1ccc(-c2ccc3ncnc(N4CCOCC4)c3c2)o1 [NCGC00229619-01]

>  <Assay metric>
IC50

>  <Value units>
µM

>  <Test value>
5.6

$$$$
>  <Molecule>
CO[C@@]12[C@H](COC(N)=O)C3=C(C(=O)C(C)=C(N)C3=O)N1C[C@@H]1N[C@@H]12 [NCGC00163468-05]

>  <Assay metric>
IC50

>  <Value units>
µM

>  <Test value>
39.8

$$$$
>  <Molecule>
CCCCCCCCCCCCCCCC[N+](C)(C)CCN(Cc1ccc(OC)cc1)c1ncccn1.[Br-] [NCGC00016507-05]

>  <Assay metric>
IC50

>  <Value units>
µM

>  <Test value>
89.1

$$$$
>  <Molecule>
O=C(O)c1csc(-n2nc(-c3ccc(F)c(F)c3)c3cccnc32)n1 [NCGC00356667-01]

>  <Assay metric>
IC50

>  <Value units>
µM

>  <Test value>
89.1

$$$$
>  <Molecule>
Nc1cccc2c1C(=O)N(C1CCC(=O)NC1=O)C2=O (centres unmarked) [NCGC00346551-01]

>  <Assay metric>
IC50

>  <Value units>
µM

>  <Test value>
44.7

$$$$
>  <Molecule>
CC(=O)c1c(O)cc2cccc3c2c1CC(C)(O)O3 (centres unmarked) [NCGC00381142-01]

>  <Assay metric>
IC50

>  <Value units>
µM

>  <Test value>
39.8

$$$$

Measured values drawn from paper PMC11249646 for this set.
